This collection of values is drawn from patent US10576062B2.

Target: human LPA1 (Homo sapiens)
Construct: expressed in transfected cells; host or cells: Chinese hamster ovary (CHO) cells
Assay: LPA1 functional antagonist assay (LPA-induced calcium flux)
Format: cell-based
Conditions: human LPA1; read-out: hLPA1 IC50
Procedure: The effectiveness of compounds of the present invention as LPA1 inhibitors can be determined in an LPA1 functional antagonist assay as follows: Chinese hamster ovary cells overexpressing human LPA1 were plated overnight (15,000 cells/well) in poly-D-lysine coated 384-well microplates (Greiner bio-one, Cat #781946) in DMEM/F12 medium (Gibco, Cat #11039). […] IC50 values were determined by fitting data to a 4-parameter logistic equation (GraphPad Prism, San Diego Calif.).
pIC50: −log10 of the molar value.
Threshold rule: pIC50 greater than or equal to 7 is Fulfilled; below that, Not fulfilled.

>>> print(df.to_string())
                                   compound                        tgt            cat
0  Cc1nc(-c2nnn(C)c2COC(=O)N2C3CCC2CC3)ccc1O[C@H]1CCC[C@H](C(=O)O)C1  human LPA1 (Homo sapiens)  Not fulfilled
1  Cc1nc(-c2nnn(C)c2COC(=O)N(C)C2CC(C)(C)C2)ccc1O[C@H]1CCC[C@H](C(=O)O)C1  human LPA1 (Homo sapiens)      Fulfilled

In: Is pIC50 at least 7? Consider "Cc1nc(-c2nnn(C)c2COC(=O)N(C)C2CC3(CC3)C2)ccc1O[C@H]1CCC[C@H](C(=O)O)C1"
Out: Fulfilled

In: Next entry: "Cn1nnc(-c2ccc(O[C@H]3CCC[C@H](C(=O)O)C3)cn2)c1COC(=O)N1CC2(CCC2)C1"
Out: Not fulfilled

In: Also Cc1nc(-c2nnn(C)c2COC(=O)N(C)C2CC3(CCC3)C2)ccc1O[C@H]1CCCC(C(=O)O)C1 (stereo in doubt) , if possible.
Out: Fulfilled

* * *

target: human LPA1 (Homo sapiens, UniProt Q92633); construct: expressed in transfected cells; host or cells: Chinese hamster ovary (CHO) cells; experiment: LPA1 functional antagonist assay (LPA-induced calcium flux); assay type: cell-based; conditions: CHO cells overexpressing human LPA1; inhibition of calcium flux induced by 10 nM LPA; read-out: hLPA1 IC50
Sequence (Q92633 whole entry): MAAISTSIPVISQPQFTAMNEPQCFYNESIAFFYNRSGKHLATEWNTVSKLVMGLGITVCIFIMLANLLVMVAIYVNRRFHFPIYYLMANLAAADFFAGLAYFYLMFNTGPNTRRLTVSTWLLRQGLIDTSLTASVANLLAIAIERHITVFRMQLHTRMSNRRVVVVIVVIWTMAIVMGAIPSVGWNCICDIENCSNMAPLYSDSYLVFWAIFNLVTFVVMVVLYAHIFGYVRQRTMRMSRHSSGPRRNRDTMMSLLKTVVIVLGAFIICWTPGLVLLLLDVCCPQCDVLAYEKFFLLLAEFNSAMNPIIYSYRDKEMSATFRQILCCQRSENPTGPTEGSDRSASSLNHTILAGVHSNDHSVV
Parameter measured: log10(IC50) (log10 of the value in nM)
Scale: decimal log of IC50, IC50 in nM.

Some molecules with recorded log10(IC50):
                                   molecule  test_value
0  Cc1nc(-c2nnn(C)c2COC(=O)N(C)CC(C)F)ccc1O[C@H]1CCC[C@H](C(=O)O)C1 (stereo partly shown) [Example 261]        2.16
1  CCc1nc(-c2nnn(C)c2COC(=O)N(C)CCC2CC2)ccc1O[C@H]1CCC[C@H](C(=O)O)C1 [Example 209]        1.34
2  Cc1nc(-c2nnn(C)c2CCOC(=O)N(C)C2CCC2)ccc1O[C@H]1CCC[C@H](C(=O)O)C1 [Example 247]        1.61
3  CN(C(=O)OCc1c(-c2cnc(O[C@H]3CCC[C@H](C(=O)O)C3)c(C(F)(F)F)c2)nnn1C)C1CCCC1 [Example 238]        2.24
4  Cc1nc(-c2nnn(C)c2COC(=O)N(C)CC2CCC2)ccc1O[C@H]1CCC[C@H](C(N)=O)C1 [Example 14]        2.92
5  Cc1nc(-c2nnn(C)c2COC(=O)N(C)CC2CCC2)ccc1O[C@H]1CCC[C@H](C#N)C1 [Example 15]        3.57

Go through the list and state log10(IC50) for each entry.
1. Cc1nc(-c2nnn(C)c2COC(=O)N(C)CC2(F)CCCC2)cnc1O[C@H]1CCC[C@H](C(=O)O)C1 [Example 234]
2. CN(CC1CCC1)C(=O)OCc1c(-c2ccc(O[C@H]3CCC[C@H](C(=O)O)C3)c(C(F)(F)F)n2)nnn1C [Example 269]
3. CN(CC1CCC1)C(=O)OCc1c(-c2cnc(O[C@H]3CCC[C@H](C(=O)O)C3)c(C(F)(F)F)c2)nnn1C [Example 239]
4. CCc1nc(-c2nnn(C)c2COC(=O)N(C)CCC(C)C)ccc1O[C@H]1CCC[C@H](C(=O)O)C1 [Example 208]
5. Cc1nc(-c2nnn(C)c2COC(=O)N(C)CC(C)C)cnc1O[C@H]1CCC[C@H](C(=O)O)C1 [Example 224]
6. CN(C(=O)OCc1c(-c2ccc(O[C@H]3CCC[C@H](C(=O)NS(C)(=O)=O)C3)cc2)nnn1C)C1CCCC1 [Example 7]
7. COCc1nc(-c2nnn(C)c2COC(=O)N(C)C2CCCC2)ccc1O[C@H]1CCC[C@H](C(=O)O)C1 [Example 287]

Out:
[1.86, 1.00, 2.64, 1.41, 2.08, 3.57, 2.07]

Batch lookup, log10(IC50) per entry.
1. CN(CC1CC1)C(=O)OCc1c(-c2ccc(O[C@H]3CCC[C@H](C(=O)O)C3)c(C(F)F)n2)nnn1C [Example 279]
2. CN(CC1CCC1)C(=O)OCc1c(-c2ccc(O[C@H]3CCC[C@H](C(=O)O)C3)c(CO)n2)nnn1C [Example 265]
3. CCCCN(C)C(=O)OCc1c(-c2ccc(O[C@H]3CCC[C@H](C(=O)O)C3)c(COC)n2)nnn1C [Example 284]
4. Cc1nc(-c2nnn(C)c2COC(=O)N(C)CC2CCCC2)cnc1O[C@H]1CCC[C@H](C(=O)O)C1 [Example 227]
5. [2H]C([2H])([2H])N(CCC)C(=O)OCc1c(-c2ccc(O[C@H]3CCC[C@H](C(=O)O)C3)c(C)n2)nnn1C [Example 288]

Out:
1.32
1.83
1.68
1.26
1.46

Give measured log10(IC50) for every item shown.
1. Cc1nc(-c2nnn(C)c2COC(=O)N(C)CC(C)(C)C)cnc1O[C@H]1CCC[C@H](C(=O)O)C1 [Example 231]
2. Cc1nc(-c2nnn(C)c2COC(=O)N(C)CC(C)(C)F)cnc1O[C@H]1CCC[C@H](C(=O)O)C1 [Example 232]
3. Cc1nc(-c2nnn(C)c2COC(=O)N(C)CCCC(C)F)ccc1O[C@H]1CCC[C@H](C(=O)O)C1 (stereo partly shown) [Example 256]

Out:
[1.94, 2.28, 1.23]

// each listed molecule needs a value for log10(IC50)
1. CCC(F)CN(C)C(=O)OCc1c(-c2ccc(O[C@H]3CCC[C@H](C(=O)O)C3)c(C)n2)nnn1C (mixture of isomers) [Example 255]
2. Cc1nc(-c2nnn(C)c2COC(=O)N(C)CC(C)(C)F)ccc1O[C@H]1CCC[C@H](C(=O)O)C1 [Example 253]
3. CN(C(=O)OCc1c(-c2ccc(O[C@H]3CCC[C@H](C(=O)O)C3)c(C#N)n2)nnn1C)C1CCCC1 [Example 294]
4. CCCCN(C)C(=O)OCc1c(-c2ccc(O[C@H]3CCC[C@H](C(=O)O)C3)c(C#N)n2)nnn1C [Example 291]
5. CCc1nc(-c2nnn(C)c2COC(=O)N(C)Cc2ccccc2)ccc1O[C@H]1CCC[C@H](C(=O)O)C1 [Example 201]
6. Cc1nc(-c2nnn(C)c2COC(=O)N(C)CCC2CC2)cnc1O[C@H]1CCC[C@H](C(=O)O)C1 [Example 225]
7. Cc1nc(-c2nnn(C)c2COC(=O)N(C)C2CCCC2)cnc1O[C@H]1CCC[C@H](C(=O)O)C1 [Example 226]

Out:
1: 1.76; 2: 2.13; 3: 1.18; 4: 1.18; 5: 1.40; 6: 1.85; 7: 1.69

* * *

Provide the recorded IC50 for the entries that follow.
molecular target: human LPA1 (Homo sapiens); construct: expressed in transfected cells; host or cells: Chinese hamster ovary (CHO) cells; assay: LPA1 functional antagonist assay (LPA-induced calcium flux); assay type: cell-based; conditions: read-out: hLPA1 IC50
Answers are plain numbers, in nM.

Answered cases to consult:
In [3]: df
Out[3]:
                                   compound  test_value
0  CCC(CC)N(C)C(=O)OCc1c(-c2ccc(O[C@H]3CCC[C@H](C(=O)O)C3)cc2)nnn1C [Example 76]          47
1  Cc1nc(-c2nnn(C)c2COC(=O)N(C)C23CC(C2)C3)ccc1O[C@H]1CCC[C@H](C(=O)O)C1 [Example 102]          53
2  Cc1nc(-c2nnn(C)c2COC(=O)N(C)CC2CC(F)(F)C2)ccc1O[C@H]1CCC[C@H](C(=O)O)C1 [Example 145]          94
3  CN(C(=O)OCc1c(-c2ccc(O[C@H]3CCC[C@H](C(=O)O)C3)cc2)nnn1C)C1CCC1 [Example 73]          62
4  CC(C1CC1)N(C)C(=O)OCc1c(-c2ccc(O[C@H]3CCC[C@H](C(=O)O)C3)c(F)c2)nnn1C (mixture of isomers) [Example 45]          20

Provide the reported IC50 of each entry below, same order.
1. Cc1nc(-c2nnn(C)c2COC(=O)N2CCC3(CCC3)C2)ccc1O[C@H]1CCC[C@H](C(=O)O)C1 [Example 135]
2. CC(C1CC1)N(C)C(=O)OCc1c(-c2ccc(O[C@H]3CCC[C@H](C(=O)O)C3)cc2)nnn1C (mixture of isomers) [Example 65]

Out:
47
80
